Molecular target: T1, TesA, E. coli thioesterase (E. coli, UniProt P0ADA1 27-208)
T1 construct: TesA thioesterase 1, E. coli; the natural protein is periplasmic; source: E. coli BL21 (DE3), purified (Ni-IMAC, Superdex 75)
T1 sequence: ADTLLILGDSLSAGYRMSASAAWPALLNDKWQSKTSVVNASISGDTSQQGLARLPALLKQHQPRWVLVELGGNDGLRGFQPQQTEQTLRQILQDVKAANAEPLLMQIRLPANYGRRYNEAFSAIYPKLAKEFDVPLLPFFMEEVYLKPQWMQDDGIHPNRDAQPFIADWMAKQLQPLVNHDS
Experiment: NMR titration; 1H-15N HSQC of perdeuterated 15N-C8-AcpP with increasing unlabeled partner protein, five points; TITAN 2D lineshape analysis, flexible stoichiometry model, error from 300 bootstrap steps; 37 °C, 10 mM potassium phosphate pH 7.4, 0.5 mM TCEP, 0.1% NaN3
Conditions: both partners purified
property_label: pKd
pKd here is simply -log10 of the concentration when that concentration is written in mol/L.

Entry octanoyl-AcpP (15N-C8-AcpP), E. coli acyl carrier protein (natural protein, octanoyl pantethenamide probe loaded as a 4'-phosphopantetheine analog (amide linked octanoyl) on S36; uniformly 15N labeled and perdeuterated, Acyl carrier protein AcpP of E. coli; Grown on a His-tagged pET-22b vector; also called amide linked octanoyl AcpP; source: E. coli BL21 (DE3), M9 minimal media with 15N NH4Cl and D2O, purified; made apo with ACPH, then loaded with an octanoyl pantethenamide probe (CoaA, CoaD, CoaE, Sfp)) STIEERVKKIIGEQLGVKQEEVTNNASFVEDLGADSLDTVELVMALEEEFDTEIPDEEAEKITTVQAAIDYINGHQA has what pKd?
4.89
